# Experiment description: ATG_AP_2_CIS: Attagene CIS-FACTORIAL HepG2 Assay for human Activator Protein 2 (AP-2) (AID 2282932)
# Test parameters: HepG2 AP-2 cis-reporter, Attagene transcription factor profiling; actives raise or lower the signal
Calls of active or inactive are those of the source. The calls were made as follows: active = hit-call score of the fitted dose curve at least 0.9, where 1 is the maximum; inactive = score below 0.9.
Returns: one label drawn from 1 (active), -1 (inactive)

Compound: OC(Cn1cncn1)(Cn1cncn1)c1ccc(F)cc1F
Answer label: -1
--
Compound: FC(F)(F)COC(OCC(F)(F)F)OCC(F)(F)F
Answer label: -1
--
Compound: C[C@@H](Oc1ccc(CNC(=O)c2cccnc2Oc2ccc3c(c2)OCO3)c(F)c1)C(=O)O
Answer label: -1

What classification did CCN(CC)C(=S)SSC(=S)N(CC)CC end up with in this test?
-1

Look up the recorded call for CC[C@H](C)C(=O)O[C@H]1C[C@H](O)C=C2C=C[C@H](C)[C@H](CC[C@@H](O)C[C@@H](O)CC(=O)O)[C@H]21 in this test.
-1

How was O=C(NO)C1(NS(=O)(=O)c2ccc(Oc3ccc(F)cc3)cc2)CCOCC1 classified in this test?
-1

Assay result, entry Cc1ccc(S(=O)(=O)NC(=O)NN2CCCCCC2)cc1 — outcome?
-1

Per the records of this test, what outcome belongs to Nc1ccn([C@@H]2O[C@H](CO)[C@@H](O)[C@@H]2O)c(=O)n1 ?
-1

Hi, sorry to bother you, what did the test record for Cc1nccn1-c1ccc(Sc2cccc(C3(C(N)=O)CCOCC3)c2)cc1 ?
1

What call does the record list for CCCCCCCC1CCC(=O)O1 (stereo unspecified) ?
-1

Returns: the outcome recorded for CCCCCCCCCC in this assay.
-1

Which outcome was entered for the compound C[Si](C)(C)C(F)(F)C(F)(F)C(F)(F)F in this test?
-1

Please let me know the test result on file for NNC(=O)c1ccncc1 .
-1

Would you mind telling me which call this test gave c1ccc2cc3ccccc3cc2c1 ?
-1

Status in this test for CCn1nc(C)c2c1C(=O)NCC(c1ccc(O)cc1)=N2 ?
-1

---

# Experiment description: ATG_RORE_CIS: Attagene CIS-FACTORIAL HepG2 Assay for human RAR-related Orphan Receptor Element (RORE) (AID 2282959)
# Test parameters: HepG2 Attagene cis-factorial RORE reporter, mRNA; actives raise or lower the signal
Activity calls are given as the source filed them. The calls were made as follows: active = hit-call score of the fitted dose curve at least 0.9, where 1 is the maximum; inactive = score below 0.9.
Pick one and only one: True (active), False (inactive)

Some solved cases for reference:
Structure as smiles: CCCCCOC(C)=O
Answer label: False
//
Structure as smiles: C[C@]12C=CC(=O)C=C1CC[C@H]1[C@@H]3C[C@@H](O)[C@](O)(C(=O)CO)[C@@]3(C)C[C@H](O)[C@@]12F
Answer label: False
//
Structure as smiles: OCCC(F)(F)C(F)(F)C(F)(F)C(F)(F)F
Answer label: False
//
Structure as smiles: O=S(=O)(O)CCC(F)(F)C(F)(F)C(F)(F)C(F)(F)C(F)(F)C(F)(F)F
Answer label: False
//
Structure as smiles: NC(=O)N(O)[C@@H]1COc2cc(OCc3ccccc3)ccc21
Answer label: False
//
Structure as smiles: OC(O)(C(F)C(O)(O)C(F)(F)F)C(F)(F)F
Answer label: False

What did the test return for COc1cc(C(C)C)c2c(c1)S(=O)(=O)N(COc1cc(=O)n3cccc(OCCN4CCCCC4)c3n1)C2=O ?
True

Where do the numbers come from? From PubChem BioAssay (EPA / NIEHS).
